SYSTEM: 5-lipoxygenase
EXPERIMENT SUMMARY: 5-lipoxygenase inhibition (method of Yoshimoto et al.)
CONDITION: read-out: 50% inhibitory concentration on 5-lipoxygenase
MEASURED ATTRIBUTE: pIC50
Answer as the number alone; pIC50 is minus log10 of concentration in mol/L.

COMPOUND: Cc1[nH]c2ccc(O)cc2c1C(=O)NC1CCN(CCCc2ccccc2)CC1 [Example 3]
SYSTEM: 5-lipoxygenase
pIC50: 6.74

The measured pIC50 associated with Cc1[nH]c2ccc(O)cc2c1C(=O)NC1CCN(CCc2ccccc2)CC1 [Example 2] reads 6.36
